Biological target: P-gp (Homo sapiens, UniProt P08183)
Construct: endogenous in cells; host or cells: Caco-2
Assay: ABC efflux transporter inhibitor test on Caco-2 cells (digoxin efflux)
Format: in vitro ADME
Details: human, Caco-2 cells, probe digoxin (5 µM); read-out: Exhaust inhibition rate (%)
metric: inhibition at 30 μM (%)
# unit: % | format: bare number

Recorded inhibition at 30 μM of COc1cc(N2CCC3(CCN(C)CC3)CC2)ccc1Nc1ncc(Cl)c(Nc2ccccc2P(C)(C)=O)n1 [Iruplinalkib] , please. 98.7

* * *

Target: UniProtKB Q96FL8
Assay: in vitro
metric: inhibition at 0.5 μM (%)
Numeric only. Scale: %

What value of measured inhibition at 0.5 μM is listed for "COc1cc(N2CCC3(CCN(C)CC3)CC2)ccc1Nc1ncc(Cl)c(Nc2ccccc2P(C)(C)=O)n1" ? 46.4

* * *

Target: BCRP (Homo sapiens)
Assay: ABC efflux transporter inhibitor test on Caco-2 cells (E3S efflux)
Conditions: human, Caco-2 cells, probe E3S (10 µM)
metric: inhibition at 0.3 μM

Request: inhibition at 0.3 μM, test system BCRP (Homo sapiens), entry "COc1cc(N2CCC3(CCN(C)CC3)CC2)ccc1Nc1ncc(Cl)c(Nc2ccccc2P(C)(C)=O)n1" 37.7%

* * *

As an illustration, consider measured pIC50 for compounds on UniProtKB P00519.
Sequence (P00519 whole entry): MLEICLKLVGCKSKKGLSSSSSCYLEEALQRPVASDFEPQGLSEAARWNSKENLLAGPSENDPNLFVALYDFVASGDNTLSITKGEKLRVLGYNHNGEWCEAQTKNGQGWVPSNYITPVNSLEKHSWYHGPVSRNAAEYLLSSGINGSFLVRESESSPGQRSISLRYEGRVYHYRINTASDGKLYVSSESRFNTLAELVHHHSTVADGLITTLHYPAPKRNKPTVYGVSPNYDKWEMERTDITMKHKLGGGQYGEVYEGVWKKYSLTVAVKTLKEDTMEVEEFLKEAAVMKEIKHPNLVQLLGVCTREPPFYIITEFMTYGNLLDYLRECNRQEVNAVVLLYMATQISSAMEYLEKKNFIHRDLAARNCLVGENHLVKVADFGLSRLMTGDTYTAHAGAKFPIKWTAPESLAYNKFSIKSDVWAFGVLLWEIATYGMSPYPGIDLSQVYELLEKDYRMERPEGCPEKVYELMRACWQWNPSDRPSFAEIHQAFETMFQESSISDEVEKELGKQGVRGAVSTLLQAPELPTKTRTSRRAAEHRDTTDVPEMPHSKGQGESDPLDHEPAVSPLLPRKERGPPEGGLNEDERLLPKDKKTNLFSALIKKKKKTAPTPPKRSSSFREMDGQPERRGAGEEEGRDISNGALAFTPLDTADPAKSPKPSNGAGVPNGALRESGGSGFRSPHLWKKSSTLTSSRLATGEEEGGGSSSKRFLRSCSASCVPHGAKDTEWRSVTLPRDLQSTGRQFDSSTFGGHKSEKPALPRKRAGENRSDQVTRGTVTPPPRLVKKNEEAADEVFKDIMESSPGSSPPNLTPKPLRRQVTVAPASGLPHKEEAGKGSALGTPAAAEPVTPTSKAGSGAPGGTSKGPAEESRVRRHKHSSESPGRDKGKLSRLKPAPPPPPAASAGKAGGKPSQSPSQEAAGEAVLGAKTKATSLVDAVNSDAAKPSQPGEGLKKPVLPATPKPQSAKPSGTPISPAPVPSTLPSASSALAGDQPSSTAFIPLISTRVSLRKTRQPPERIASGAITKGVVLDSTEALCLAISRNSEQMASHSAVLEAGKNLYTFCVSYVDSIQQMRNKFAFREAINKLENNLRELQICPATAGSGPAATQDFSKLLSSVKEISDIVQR
Expect pIC50 as a plain number equal to -log10 of the molar concentration.

• COc1cc(N2CCC3(CCN(C)CC3)CC2)ccc1Nc1ncc(Cl)c(Nc2ccccc2P(C)(C)=O)n1 = 6.24

Consider the additional compound presented here.
Query the reported pIC50 for UniProtKB P00519; item: COc1cc(N2CCC(N3CCN(C)CC3)CC2)ccc1Nc1ncc(Cl)c(Nc2ccccc2P(C)(C)=O)n1 [Brigatinib, reference compound] 6.22

* * *

Observed IC50 values for JAK2 (Homo sapiens) are listed in what follows.
Report only the number, with the unit nM understood.

- COc1cc(N2CCC(N3CCN(C)CC3)CC2)ccc1Nc1ncc(Cl)c(Nc2ccccc2P(C)(C)=O)n1 [Brigatinib, reference compound]: 680

Field: next compound
Can you share its IC50? I mean this compound: "COc1cc(N2CCC3(CCN(C)CC3)CC2)ccc1Nc1ncc(Cl)c(Nc2ccccc2P(C)(C)=O)n1" 595

* * *

Target: BSEP (Homo sapiens)
Construct: host or cells: membrane vesicles ('Membrane capsule'), BSEP versus NC control, with ATP or AMP
Experiment: BSEP inhibitor investigation
Assay type: in vitro ADME
Settings: BSEP membrane capsules (membrane vesicles), ATP vs AMP, probe TCA; BSEP; substrate TCA 10 μM; inhibitor 0.3 μM; read-out: Inhibition rate
metric: inhibition at 0.3 μM (%)
Write the answer as a number in %, unit excluded.

So what does the record say about inhibition at 0.3 μM for COc1cc(N2CCC3(CCN(C)CC3)CC2)ccc1Nc1ncc(Cl)c(Nc2ccccc2P(C)(C)=O)n1 [Iruplinalkib] ? -10.7

* * *

Target: BSEP (Homo sapiens, UniProt O95342)
Construct: host or cells: membrane vesicles ('Membrane capsule'), BSEP versus NC control, with ATP or AMP
Sequence (O95342 whole entry): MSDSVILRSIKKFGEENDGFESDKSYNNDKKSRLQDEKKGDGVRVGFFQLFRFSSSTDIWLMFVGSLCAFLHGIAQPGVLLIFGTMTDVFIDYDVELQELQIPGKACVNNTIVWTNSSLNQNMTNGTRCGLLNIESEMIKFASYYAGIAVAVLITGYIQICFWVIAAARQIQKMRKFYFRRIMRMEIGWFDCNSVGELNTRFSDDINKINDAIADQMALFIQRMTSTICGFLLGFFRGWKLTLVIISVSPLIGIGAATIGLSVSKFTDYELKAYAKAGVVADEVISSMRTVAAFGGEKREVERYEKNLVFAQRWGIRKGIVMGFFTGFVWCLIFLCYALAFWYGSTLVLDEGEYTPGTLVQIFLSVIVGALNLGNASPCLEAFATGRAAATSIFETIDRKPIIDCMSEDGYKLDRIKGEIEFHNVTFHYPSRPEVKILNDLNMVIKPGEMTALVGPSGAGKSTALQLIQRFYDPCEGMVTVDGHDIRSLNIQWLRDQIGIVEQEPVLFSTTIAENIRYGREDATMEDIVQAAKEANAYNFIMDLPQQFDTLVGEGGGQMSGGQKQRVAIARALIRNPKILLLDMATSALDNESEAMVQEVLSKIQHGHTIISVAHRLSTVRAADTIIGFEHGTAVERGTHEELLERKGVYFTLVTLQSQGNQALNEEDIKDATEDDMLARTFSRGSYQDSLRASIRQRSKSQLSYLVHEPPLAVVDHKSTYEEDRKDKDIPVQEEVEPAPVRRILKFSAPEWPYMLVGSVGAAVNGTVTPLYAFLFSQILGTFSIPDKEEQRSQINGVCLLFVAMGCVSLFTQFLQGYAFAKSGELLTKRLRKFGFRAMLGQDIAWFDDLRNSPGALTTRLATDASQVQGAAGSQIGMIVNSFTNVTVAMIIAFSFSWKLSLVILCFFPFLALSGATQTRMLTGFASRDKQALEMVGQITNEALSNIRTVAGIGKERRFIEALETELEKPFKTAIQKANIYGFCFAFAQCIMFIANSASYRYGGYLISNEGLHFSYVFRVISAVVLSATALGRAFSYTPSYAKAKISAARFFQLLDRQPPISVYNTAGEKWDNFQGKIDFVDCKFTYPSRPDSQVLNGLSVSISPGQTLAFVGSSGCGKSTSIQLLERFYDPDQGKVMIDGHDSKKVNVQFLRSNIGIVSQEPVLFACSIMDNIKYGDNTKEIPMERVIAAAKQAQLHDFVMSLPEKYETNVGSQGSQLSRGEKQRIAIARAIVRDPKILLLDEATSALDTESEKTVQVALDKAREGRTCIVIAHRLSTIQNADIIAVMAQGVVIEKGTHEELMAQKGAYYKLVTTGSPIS
Assay: BSEP inhibitor investigation
Format: in vitro ADME
Conditions: BSEP membrane capsules (membrane vesicles), ATP vs AMP, probe TCA; BSEP; substrate TCA 10 μM; inhibitor 100 μM; read-out: Inhibition rate
metric: inhibition at 100 μM (%)
Return type: number; implicit unit %.

Would you mind telling me what inhibition at 100 μM value was observed for "COc1cc(N2CCC3(CCN(C)CC3)CC2)ccc1Nc1ncc(Cl)c(Nc2ccccc2P(C)(C)=O)n1" ? 26.3

* * *

Protein target, amino acids: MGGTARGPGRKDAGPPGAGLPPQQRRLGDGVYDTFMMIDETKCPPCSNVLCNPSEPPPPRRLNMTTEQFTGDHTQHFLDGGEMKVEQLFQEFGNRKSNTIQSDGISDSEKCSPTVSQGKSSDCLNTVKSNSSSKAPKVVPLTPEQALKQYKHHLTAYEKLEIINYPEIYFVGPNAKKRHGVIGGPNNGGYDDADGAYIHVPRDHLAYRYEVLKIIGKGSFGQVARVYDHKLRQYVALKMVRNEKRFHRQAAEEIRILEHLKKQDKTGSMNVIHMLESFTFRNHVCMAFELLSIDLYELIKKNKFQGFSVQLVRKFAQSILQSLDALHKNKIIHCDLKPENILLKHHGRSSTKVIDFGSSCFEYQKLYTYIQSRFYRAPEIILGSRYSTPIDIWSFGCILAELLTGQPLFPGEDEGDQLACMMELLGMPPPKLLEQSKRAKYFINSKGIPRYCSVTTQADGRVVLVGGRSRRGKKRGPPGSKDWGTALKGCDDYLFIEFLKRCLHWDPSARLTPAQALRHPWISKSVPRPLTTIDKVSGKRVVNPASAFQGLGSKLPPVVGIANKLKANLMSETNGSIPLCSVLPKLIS
metric: pIC50
Value format note: pIC50 is -log10 of concentration (mol/L); just state the number.

What value of pIC50 has been recorded for this entry: COc1cc(N2CCC3(CCN(C)CC3)CC2)ccc1Nc1ncc(Cl)c(Nc2ccccc2P(C)(C)=O)n1 [Iruplinalkib] 5.10

* * *

# IC50 measurements, system: EPHA2 (Homo sapiens, UniProt P29317)
# Sequence (P29317 24-976): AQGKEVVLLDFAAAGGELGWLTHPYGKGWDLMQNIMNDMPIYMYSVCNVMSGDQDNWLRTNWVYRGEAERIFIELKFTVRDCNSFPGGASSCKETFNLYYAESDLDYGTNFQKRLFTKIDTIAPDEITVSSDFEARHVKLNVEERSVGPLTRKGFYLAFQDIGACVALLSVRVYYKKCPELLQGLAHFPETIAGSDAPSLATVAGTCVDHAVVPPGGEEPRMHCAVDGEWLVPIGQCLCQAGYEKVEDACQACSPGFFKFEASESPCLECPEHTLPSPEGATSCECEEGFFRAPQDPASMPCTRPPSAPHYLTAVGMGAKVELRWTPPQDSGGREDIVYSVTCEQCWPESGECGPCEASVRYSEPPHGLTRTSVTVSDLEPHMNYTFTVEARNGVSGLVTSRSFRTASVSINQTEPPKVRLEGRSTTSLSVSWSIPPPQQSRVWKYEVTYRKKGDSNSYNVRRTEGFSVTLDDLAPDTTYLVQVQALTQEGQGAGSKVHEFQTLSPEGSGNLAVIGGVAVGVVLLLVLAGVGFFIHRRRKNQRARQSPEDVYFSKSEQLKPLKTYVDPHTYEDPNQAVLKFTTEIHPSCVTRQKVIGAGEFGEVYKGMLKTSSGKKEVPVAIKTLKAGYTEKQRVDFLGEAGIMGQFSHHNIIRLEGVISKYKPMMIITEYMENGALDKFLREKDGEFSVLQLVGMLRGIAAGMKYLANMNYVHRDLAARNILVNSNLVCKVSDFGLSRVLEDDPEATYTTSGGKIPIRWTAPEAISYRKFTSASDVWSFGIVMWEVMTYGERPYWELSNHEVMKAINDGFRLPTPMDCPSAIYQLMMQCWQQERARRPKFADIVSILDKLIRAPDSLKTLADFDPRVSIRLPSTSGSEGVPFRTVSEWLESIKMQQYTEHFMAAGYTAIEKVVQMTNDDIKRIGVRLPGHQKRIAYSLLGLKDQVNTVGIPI

- COc1cc(N2CCC(N3CCN(C)CC3)CC2)ccc1Nc1ncc(Cl)c(Nc2ccccc2P(C)(C)=O)n1 [Brigatinib, reference compound]: > 10 µM

Now turn to the next compound.
Given "COc1cc(N2CCC3(CCN(C)CC3)CC2)ccc1Nc1ncc(Cl)c(Nc2ccccc2P(C)(C)=O)n1" , state its recorded IC50. > 10 µM

* * *

Test system: OAT1
Experiment: Uptake inhibitor investigation in HEK293 cells expressing transporter
Format: in vitro ADME
Details: human, HEK293 cells expressing OAT1, probe ATV, 1 μM; read-out: Inhibition rate
metric: inhibition at 0.5 μM (%)
Write the answer as a number in %, unit excluded.

// map "COc1cc(N2CCC3(CCN(C)CC3)CC2)ccc1Nc1ncc(Cl)c(Nc2ccccc2P(C)(C)=O)n1" to recorded inhibition at 0.5 μM (system: OAT1) 26.7

* * *

Target: LCK (Homo sapiens)
metric: IC50 (nM)
Record the value in nM, omitting the unit from your answer.

- COc1cc(N2CCC3(CCN(C)CC3)CC2)ccc1Nc1ncc(Cl)c(Nc2ccccc2P(C)(C)=O)n1: 825

--- query ---
// IC50 lookup, key: COc1cc(N2CCC(N3CCN(C)CC3)CC2)ccc1Nc1ncc(Cl)c(Nc2ccccc2P(C)(C)=O)n1 [Brigatinib, reference compound] 444

* * *

Target: BSEP (Homo sapiens, UniProt O95342)
Construct: host or cells: membrane vesicles ('Membrane capsule'), BSEP versus NC control, with ATP or AMP
Assay: BSEP inhibitor investigation
Assay type: in vitro ADME
Conditions: BSEP membrane capsules (membrane vesicles), ATP vs AMP, probe TCA; BSEP; substrate TCA 10 μM; inhibitor 1 μM; read-out: Inhibition rate
metric: inhibition at 1 μM
Answer format reminder: number followed by unit.

Look up inhibition at 1 μM for this compound: COc1cc(N2CCC3(CCN(C)CC3)CC2)ccc1Nc1ncc(Cl)c(Nc2ccccc2P(C)(C)=O)n1 [Iruplinalkib] -26.7%

* * *

Target: UniProt:Q96FL8
Sequence (Q96FL8 1-570): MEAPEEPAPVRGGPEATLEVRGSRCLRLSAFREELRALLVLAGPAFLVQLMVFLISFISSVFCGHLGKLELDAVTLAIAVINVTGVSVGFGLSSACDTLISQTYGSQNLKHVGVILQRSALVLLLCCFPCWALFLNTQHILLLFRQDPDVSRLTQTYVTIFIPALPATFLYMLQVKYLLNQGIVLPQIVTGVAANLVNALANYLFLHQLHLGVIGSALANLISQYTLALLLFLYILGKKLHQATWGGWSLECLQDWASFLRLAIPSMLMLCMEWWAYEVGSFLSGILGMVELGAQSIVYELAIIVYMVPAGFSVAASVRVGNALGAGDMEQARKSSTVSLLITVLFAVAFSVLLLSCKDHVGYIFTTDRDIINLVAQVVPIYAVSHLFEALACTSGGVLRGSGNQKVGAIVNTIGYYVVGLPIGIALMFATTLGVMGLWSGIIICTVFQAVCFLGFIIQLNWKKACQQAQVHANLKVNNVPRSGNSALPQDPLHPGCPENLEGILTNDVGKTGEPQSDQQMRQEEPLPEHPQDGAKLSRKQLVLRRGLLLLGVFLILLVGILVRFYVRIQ
Test: in vitro
metric: inhibition at 5 μM (%)
Express it in %; write the number only.

Given the entry COc1cc(N2CCC3(CCN(C)CC3)CC2)ccc1Nc1ncc(Cl)c(Nc2ccccc2P(C)(C)=O)n1 [Iruplinalkib] , report its measured inhibition at 5 μM. 94.5

* * *

Biological target: INSR (Homo sapiens, UniProt P06213)
Sequence (P06213 28-1382): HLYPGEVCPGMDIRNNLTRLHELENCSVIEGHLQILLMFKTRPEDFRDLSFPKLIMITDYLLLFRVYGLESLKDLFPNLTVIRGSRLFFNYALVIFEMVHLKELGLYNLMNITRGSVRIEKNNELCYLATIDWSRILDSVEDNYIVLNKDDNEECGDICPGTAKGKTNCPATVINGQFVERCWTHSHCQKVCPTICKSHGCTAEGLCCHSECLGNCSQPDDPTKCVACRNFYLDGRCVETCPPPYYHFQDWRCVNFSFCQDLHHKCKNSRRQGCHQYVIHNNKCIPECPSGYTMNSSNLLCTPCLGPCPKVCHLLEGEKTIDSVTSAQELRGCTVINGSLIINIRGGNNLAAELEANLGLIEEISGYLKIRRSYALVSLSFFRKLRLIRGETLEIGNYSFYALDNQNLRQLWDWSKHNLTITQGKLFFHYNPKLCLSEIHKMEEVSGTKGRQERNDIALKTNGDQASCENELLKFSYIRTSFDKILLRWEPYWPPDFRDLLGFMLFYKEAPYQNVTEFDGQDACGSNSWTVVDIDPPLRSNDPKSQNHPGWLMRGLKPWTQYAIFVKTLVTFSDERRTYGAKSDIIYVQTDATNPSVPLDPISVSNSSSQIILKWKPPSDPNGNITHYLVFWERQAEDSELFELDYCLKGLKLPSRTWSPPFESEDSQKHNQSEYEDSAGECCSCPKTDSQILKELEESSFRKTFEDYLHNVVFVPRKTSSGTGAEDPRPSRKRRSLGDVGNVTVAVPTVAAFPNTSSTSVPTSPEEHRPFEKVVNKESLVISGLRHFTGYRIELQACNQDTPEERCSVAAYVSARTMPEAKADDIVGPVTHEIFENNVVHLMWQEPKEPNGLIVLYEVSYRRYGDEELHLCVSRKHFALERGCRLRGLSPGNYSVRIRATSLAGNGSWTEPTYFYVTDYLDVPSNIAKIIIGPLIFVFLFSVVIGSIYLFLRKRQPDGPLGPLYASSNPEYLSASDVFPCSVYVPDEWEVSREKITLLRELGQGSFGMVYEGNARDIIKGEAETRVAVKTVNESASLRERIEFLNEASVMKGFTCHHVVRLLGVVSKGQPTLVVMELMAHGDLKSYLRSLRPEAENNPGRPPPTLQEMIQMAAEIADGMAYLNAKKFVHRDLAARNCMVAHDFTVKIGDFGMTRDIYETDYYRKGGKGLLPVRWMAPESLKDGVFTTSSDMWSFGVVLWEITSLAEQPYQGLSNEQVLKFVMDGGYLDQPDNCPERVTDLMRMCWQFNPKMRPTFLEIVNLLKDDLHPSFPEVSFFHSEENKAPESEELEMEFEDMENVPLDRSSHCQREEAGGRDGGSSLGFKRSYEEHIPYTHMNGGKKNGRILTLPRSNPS
Listing of entries alongside the reported IC50.
Only the number, expressed in nM, is required.

- COc1cc(N2CCC3(CCN(C)CC3)CC2)ccc1Nc1ncc(Cl)c(Nc2ccccc2P(C)(C)=O)n1: 699

Could you now look at the following compound, please?
Which IC50 value is on record for COc1cc(N2CCC(N3CCN(C)CC3)CC2)ccc1Nc1ncc(Cl)c(Nc2ccccc2P(C)(C)=O)n1 [Brigatinib, reference compound] ? 626
